The origin of these recorded values is PubChem BioAssay (NCI).

Assay: NCI Yeast Anticancer Drug Screen. Data for the mlh1 rad18 strain (AID 175)
Conditions: S. cerevisiae mlh1 rad18 strain growth inhibition; at 50.0 µM; stronger effect = higher value
Compounds without any hit were thinned out: in the full panel of roughly 79,000, 15% have a hit.
Parameter: growth inhibition (%)
Only the number, expressed in %, is required.

[
  {
    "Compound": "C1=CC(=P(c2ccccc2)(c2ccccc2)c2ccccc2)C=C1",
    "Value Measured": 34
  },
  {
    "Compound": "CC(Cc1ccccc1)NC(=O)CCCN1C(=O)c2ccccc2C1=O (configuration not stated)",
    "Value Measured": -5.15
  },
  {
    "Compound": "O=C(c1ccccc1)N1C(c2ccccc2)C1(c1ccccc1)C1(c2ccccc2)SCCCS1 (configuration not stated)",
    "Value Measured": -1.25
  }
]

Data point: O=C(CCCl)OC1CCCC1 ; growth inhibition = 9

====

Assay: NCI Yeast Anticancer Drug Screen. Data for the mlh1 rad18 strain (AID 175)
Conditions: S. cerevisiae mlh1 rad18 strain growth inhibition; at 50.0 µM; stronger effect = higher value
Compounds without any hit were thinned out: in the full panel of roughly 79,000, 15% have a hit.
Parameter: growth inhibition (%)
# unit: % | format: bare number

[
  {
    "Compound": "COc1ccc(Nc2nc3c([nH]2)c(=O)n(C)c(=O)n3C)cc1",
    "Readout Units": "%",
    "Value Measured": 13.3
  },
  {
    "Compound": "CC(=O)Nc1c(C)ccc(C)c1C(=O)O",
    "Readout Units": "%",
    "Value Measured": 11.8
  },
  {
    "Compound": "Cc1cccc(NC(=O)CSc2nnc(-c3ccc(N=Cc4ccc(Cl)cc4)cc3)o2)c1",
    "Readout Units": "%",
    "Value Measured": 14.7
  },
  {
    "Compound": "C=C1C(=O)OC2/C=C(\\C)C(O)CC(O)C(C)(O)CC(OC(=O)/C(C)=C/C)C12 (stereo unspecified)",
    "Readout Units": "%",
    "Value Measured": -10.8
  },
  {
    "Compound": "CC(C)(C)NCCCCCO",
    "Readout Units": "%",
    "Value Measured": -16.1
  }
]

Query CC1=C(C(=O)Nc2ccc(C)cc2)C(c2cccc([N+](=O)[O-])c2)C(C(=O)Nc2ccc(C)cc2)=C(C)N1 yields growth inhibition of 4.35

Given item O=c1/c(=C/c2ccccc2F)sc2nc3ccccc3n12 , the value recorded as its growth inhibition is 12.3

growth inhibition in this record for CC1(C)N=C(N)N=C(N)N1c1ccc(-c2ccccc2)cc1 : 19.5

What the record says about COC(=O)/C=C/c1cccc([N+](=O)[O-])c1 : growth inhibition is -18.3

Looking up O=C1CCc2cc3c(cc21)CC1(Cc2cc4c(cc2C1)CCCC4)C3 , I see its growth inhibition listed as -20.3

Field growth inhibition (entry CC1(C)C2CC(NC(=O)c3ccc([N+](=O)[O-])cc3)C1C2 (stereo unspecified) ) reads 11.9

====

Entries and their growth inhibition values follow.
Assay: NCI Yeast Anticancer Drug Screen. Data for the bub3 strain (AID 167)
Details: S. cerevisiae bub3 mutant strain, at 50.0 µM, stronger effect = higher value
About 79,000 compounds went through this panel and 15% of them were active in at least one assay; those are over-represented in the sample as a whole.
The reply should contain only the number, in %.

The cases that follow already have their growth inhibition on record.
[
  {
    "Compound": "Clc1nc(C(Cl)Cl)nc2ccccc12",
    "growth inhibition / %": 16.1
  },
  {
    "Compound": "c1ccc(-c2nnnn2-c2ccccc2)cc1",
    "growth inhibition / %": 5.4
  },
  {
    "Compound": "CC(C)(C)/C=C/N=NNc1ccccc1C(=O)NC(C)(C)C",
    "growth inhibition / %": -2
  },
  {
    "Compound": "C=CCOC(=O)CC(O)(CC(=O)OCC=C)C(=O)OCC=C",
    "growth inhibition / %": -6.4
  },
  {
    "Compound": "CC(C)(C)c1ccc2c(c1)C(C)(C)CCC2(C)C",
    "growth inhibition / %": 8.3
  },
  {
    "Compound": "Cc1ccc(NC(=O)Nc2cccc(Cl)c2)cc1C",
    "growth inhibition / %": 5.1
  },
  {
    "Compound": "CC(=O)N/C(=C\\c1ccc(Cc2nc3c([nH]2)C(=O)c2ccccc2C3=O)cc1)c1nc2c([nH]1)C(=O)c1ccccc1C2=O",
    "growth inhibition / %": 15.2
  },
  {
    "Compound": "COc1c2occc2c(CC(O)C(C)(C)O)c2ccc(=O)oc12 (stereo not drawn)",
    "growth inhibition / %": -3.75
  },
  {
    "Compound": "CC1=C(c2cc(C(=O)Nc3cccc(C(F)(F)F)c3)nc(NC#N)n2)Sc2ccccc2N1",
    "growth inhibition / %": 2.7
  },
  {
    "Compound": "COc1ccc(-c2oc3cc(OC)c(OC)c(OC)c3c(=O)c2O)cc1O",
    "growth inhibition / %": 65.4
  }
]

response.value for COC(=O)/C=C/c1cccc([N+](=O)[O-])c1 (field: growth inhibition) = -0.7

The compound listed as c1ccc(Oc2ccccc2-c2ccccc2)cc1 has a reported growth inhibition of -23.1
